Target: UniProt:P10635
Sequence (P10635 whole entry): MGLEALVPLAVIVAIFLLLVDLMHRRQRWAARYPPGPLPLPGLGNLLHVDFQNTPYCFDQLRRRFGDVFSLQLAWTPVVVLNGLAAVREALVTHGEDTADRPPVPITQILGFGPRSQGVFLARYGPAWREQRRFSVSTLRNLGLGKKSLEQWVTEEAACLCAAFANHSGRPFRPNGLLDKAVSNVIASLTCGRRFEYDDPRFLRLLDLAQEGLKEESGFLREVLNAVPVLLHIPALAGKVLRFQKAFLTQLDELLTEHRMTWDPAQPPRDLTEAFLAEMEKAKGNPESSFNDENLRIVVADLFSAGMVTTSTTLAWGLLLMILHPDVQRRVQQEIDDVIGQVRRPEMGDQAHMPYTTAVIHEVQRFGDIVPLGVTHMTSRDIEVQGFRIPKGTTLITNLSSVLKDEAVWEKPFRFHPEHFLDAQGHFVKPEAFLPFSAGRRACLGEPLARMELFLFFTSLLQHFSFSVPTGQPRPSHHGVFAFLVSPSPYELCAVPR
Experiment: CYP2D6 inhibition
Type: in vitro ADME
pIC50: −log10 of the molar value.
quantity: pIC50

Recorded pIC50 of Cc1c(C(F)(F)F)oc2ncnc(SCC(=O)N3CC(=O)N(C)C3)c12 , please.
< 4.52

---

Assay: LogD7.4
Type: physicochemical
Conditions: pH 7.4
quantity: logD
Please reply with the number alone, leaving off any unit.

Recorded logD of Cc1sc2ncnc(SCC(=O)N3CC(=O)N(C)C3)c2c1Cl [Compound 5l] , please.
1.8

---

Molecular target: UniProtKB P08684
Sequence (P08684 whole entry): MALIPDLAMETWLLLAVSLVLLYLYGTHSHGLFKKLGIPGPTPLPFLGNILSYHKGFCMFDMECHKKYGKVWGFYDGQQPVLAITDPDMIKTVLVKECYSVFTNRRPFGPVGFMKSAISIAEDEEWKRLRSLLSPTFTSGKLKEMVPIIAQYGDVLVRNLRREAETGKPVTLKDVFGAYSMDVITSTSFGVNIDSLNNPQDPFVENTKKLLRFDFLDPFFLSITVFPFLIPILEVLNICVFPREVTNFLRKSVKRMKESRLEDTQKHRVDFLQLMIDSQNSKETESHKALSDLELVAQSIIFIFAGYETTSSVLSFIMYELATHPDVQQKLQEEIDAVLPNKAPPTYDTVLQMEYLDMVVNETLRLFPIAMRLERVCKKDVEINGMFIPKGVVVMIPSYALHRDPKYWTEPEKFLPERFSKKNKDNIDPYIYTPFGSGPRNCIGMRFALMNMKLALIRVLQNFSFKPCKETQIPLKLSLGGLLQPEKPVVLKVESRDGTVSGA
Experiment: CYP3A4 inhibition
Format: in vitro ADME
quantity: IC50

Recorded IC50 of Cc1c(C(F)(F)F)oc2ncnc(SCC(=O)N3CC(=O)N(C)C3)c12 , please.
> 30 µM
